Target: GIST430/654 cell line expressing mutated constitutively active cKIT receptor tyrosine kinase (Δ560-576 deletion and V654A point mutation) (Homo sapiens, UniProt P10721, DEL560-576/V654A)
Construct: endogenous in cells
Sequence (P10721 with tags, fused parts or gaps DEL560-576/V654A): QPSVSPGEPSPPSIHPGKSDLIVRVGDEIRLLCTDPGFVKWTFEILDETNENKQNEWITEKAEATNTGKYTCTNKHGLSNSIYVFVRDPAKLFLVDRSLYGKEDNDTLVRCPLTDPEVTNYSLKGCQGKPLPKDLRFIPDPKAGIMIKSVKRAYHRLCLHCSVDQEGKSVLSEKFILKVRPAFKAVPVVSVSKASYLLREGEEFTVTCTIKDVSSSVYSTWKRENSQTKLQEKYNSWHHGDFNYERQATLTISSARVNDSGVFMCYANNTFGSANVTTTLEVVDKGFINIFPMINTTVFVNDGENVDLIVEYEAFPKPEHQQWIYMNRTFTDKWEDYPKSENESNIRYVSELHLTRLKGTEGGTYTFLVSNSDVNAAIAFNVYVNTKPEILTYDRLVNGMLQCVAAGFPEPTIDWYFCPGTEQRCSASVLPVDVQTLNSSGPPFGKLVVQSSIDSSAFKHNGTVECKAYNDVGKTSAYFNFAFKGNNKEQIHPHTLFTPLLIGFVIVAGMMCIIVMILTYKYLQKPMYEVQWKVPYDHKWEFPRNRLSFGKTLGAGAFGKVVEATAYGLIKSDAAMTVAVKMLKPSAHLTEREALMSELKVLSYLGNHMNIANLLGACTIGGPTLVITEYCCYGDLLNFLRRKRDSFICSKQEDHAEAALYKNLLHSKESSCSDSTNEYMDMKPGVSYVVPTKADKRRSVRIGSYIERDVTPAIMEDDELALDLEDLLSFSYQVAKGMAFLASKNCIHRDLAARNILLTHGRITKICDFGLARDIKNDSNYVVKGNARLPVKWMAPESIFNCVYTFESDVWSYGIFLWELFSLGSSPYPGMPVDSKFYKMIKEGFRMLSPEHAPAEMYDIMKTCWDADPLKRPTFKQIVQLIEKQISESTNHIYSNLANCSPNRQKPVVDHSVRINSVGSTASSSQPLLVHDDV
Experiment: Cellular cKIT autophosphorylation (phospho-Y307-cKIT, Luminex bead assay) in GIST430/654 cells
Conditions: compounds 45 min, read-out: GIST 430/654 IC50
ENDPOINT LABEL: pIC50
Quick note: pIC50 values are minus log10 of concentrations in mol/L.

As a guide, the following entries are already answered.
1. COCCOc1ccn2c(-c3cc(NCc4ccc(-c5ccccc5)cc4)ncn3)cnc2c1 [A2] ... 6.80
2. CC(COc1ccn2c(-c3cc(NCc4ccc(-c5cnn(C)n5)cc4)ncn3)cnc2c1)CN1CCCC1 (stereo not shown) [A227] ... 7.32
3. Cn1cc(-c2ccc(CNc3cc(-c4cnc5cc(OCCN6CCn7nncc7C6)ccn45)ncn3)cc2)cn1 [A217] ... 7.12

Okay, next one:
I am curious: what pIC50 value has been reported for COc1ccn2c(-c3cc(NCc4ccc(-c5ccc(C)nn5)cc4)ncn3)cnc2c1 [A40] ?
5.96
